Consider the following compounds; for each one, report its cytotoxicity at 10 µM.
assay: Toxicity liver stage against HepG2, at 10uM; assay type: cell-based; parameters: test concentration 10 uM, cell line HepG2-A16-CD81EGFP; conditions: human, HepG2-A16-CD81EGFP cells; read-out: INHIBITION
Supply the numeric figure in %, leaving out any unit text.

INPUT: # input compound: "Cc1ccc(C)c(NC(=O)Cn2cc(I)cn2)c1" ; wanted: its cytotoxicity at 10 µM
OUTPUT: 7.72

INPUT: # input compound: CC/C=C(/C)C(=O)N1CCN(C2=NCC(C)S2)CC1 (stereo unspecified) ; wanted: its cytotoxicity at 10 µM
OUTPUT: -145

INPUT: # input compound: "O=C1NC2(Cc3ccccc31)CN(CC1CCNCC1)C2" ; wanted: its cytotoxicity at 10 µM
OUTPUT: 10.8

INPUT: # input compound: "CN1CCC(NC(=O)Nc2cnn(-c3ccccc3Cl)c2)CC1" ; wanted: its cytotoxicity at 10 µM
OUTPUT: -5.5

INPUT: # input compound: CC(C#N)CN(C)C(=O)CCNC(=O)OCC(F)(F)F (stereo unspecified) ; wanted: its cytotoxicity at 10 µM
OUTPUT: 3.89

INPUT: # input compound: "O=c1[nH]c2c(-c3ccccn3)nsc2c(=O)n1C1CCCCC1" ; wanted: its cytotoxicity at 10 µM
OUTPUT: -11.5

----------
test: Toxicity liver stage against HepG2, at 10uM; format: cell-based; set-up: test concentration 10 uM, cell line HepG2-A16-CD81EGFP; conditions: human, HepG2-A16-CD81EGFP cells; read-out: INHIBITION
MEASUREMENT_LABEL: cytotoxicity at 10 µM
Mention the unit after the number when you answer.

INPUT: # input molecule: "COCCNc1ccccc1CNC(=O)NCc1ccc(C)s1" ; wanted: its cytotoxicity at 10 µM
OUTPUT: 4.38%

INPUT: # input molecule: "COCC(=O)NCc1cc(=O)n2c(n1)CN(Cc1nccs1)CCC2" ; wanted: its cytotoxicity at 10 µM
OUTPUT: -107%

INPUT: # input molecule: "CCOC(=O)CNC(=O)Cn1c(-c2ccoc2)nc(C)c1C" ; wanted: its cytotoxicity at 10 µM
OUTPUT: -2.8%

INPUT: # input molecule: "COc1c(CNC2(c3ccc(Cl)cc3)CCC2)c(C)nn1C" ; wanted: its cytotoxicity at 10 µM
OUTPUT: 4.22%

INPUT: # input molecule: "COc1ncc(NS(=O)(=O)c2ccc(OC)c(C)c2)c(OC)n1" ; wanted: its cytotoxicity at 10 µM
OUTPUT: 34.8%

INPUT: # input molecule: "CCC(=O)N1CCN(c2nc(C)nc3c(C)nn(C)c23)CC1" ; wanted: its cytotoxicity at 10 µM
OUTPUT: 12.4%

INPUT: # input molecule: CC(C)c1nccn1C1CCCN(C(=O)CN(C)C2CC2)C1 (centres undefined) ; wanted: its cytotoxicity at 10 µM
OUTPUT: -4.3%

INPUT: # input molecule: Cc1cnn(CC2CN(CC(=O)NCc3ccc(C)s3)CCO2)c1 (centres undefined) ; wanted: its cytotoxicity at 10 µM
OUTPUT: 0.742%

INPUT: # input molecule: "CN(C)c1ccnc(N2CCC(NCCOc3ccccc3)CC2)n1" ; wanted: its cytotoxicity at 10 µM
OUTPUT: -4.99%

INPUT: # input molecule: COc1ccccc1C1SCC(=O)Nc2c1c(=O)[nH]n2C1CCOCC1 (centres undefined) ; wanted: its cytotoxicity at 10 µM
OUTPUT: -5.43%

INPUT: # input molecule: COCCN1C(=O)CC(N2CCN(c3ccccc3)CC2)C1=O (centres undefined) ; wanted: its cytotoxicity at 10 µM
OUTPUT: 1.22%

INPUT: # input molecule: CC(Oc1cc(Cl)cc(Cl)c1)C(=O)NCCC(=O)N(C)C (centres undefined) ; wanted: its cytotoxicity at 10 µM
OUTPUT: -6.51%

INPUT: # input molecule: Cc1nc(C)n(CC2CCCN2c2ncnc3c2CCC3)n1 (centres undefined) ; wanted: its cytotoxicity at 10 µM
OUTPUT: 8.03%

INPUT: # input molecule: "Cc1cc(C(F)(F)F)nc(CCNc2nc(C)nc3sccc23)n1" ; wanted: its cytotoxicity at 10 µM
OUTPUT: 9.46%

INPUT: # input molecule: "CC(C)(CN1CCCC1)CN1CCC(Cn2cc(CCO)nn2)CC1" ; wanted: its cytotoxicity at 10 µM
OUTPUT: 1.87%

INPUT: # input molecule: "CC(C)N[C@@H]1CO[C@H](CNC(=O)c2ccccc2)[C@H]1O" ; wanted: its cytotoxicity at 10 µM
OUTPUT: -5.73%

INPUT: # input molecule: CC1(C(N)=O)CN(CC2CCOCC2)CCO1 (centres undefined) ; wanted: its cytotoxicity at 10 µM
OUTPUT: -0.74%

INPUT: # input molecule: "Cc1csc(N2CCN(C(=O)C3(C#N)CCCCC3)CC2)n1" ; wanted: its cytotoxicity at 10 µM
OUTPUT: -8.45%

INPUT: # input molecule: "COc1cc(CCC(=O)NC2CCN(C)CC2)ccc1OCC(F)(F)F" ; wanted: its cytotoxicity at 10 µM
OUTPUT: -8.82%

INPUT: # input molecule: CN1CCOC(CNCc2cccc(OC(F)(F)F)c2)C1 (centres undefined) ; wanted: its cytotoxicity at 10 µM
OUTPUT: -12%

INPUT: # input molecule: Cc1cc(CN(C)C(=O)C2CCC(=O)N(CC3CCCCC3)C2)n[nH]1 (centres undefined) ; wanted: its cytotoxicity at 10 µM
OUTPUT: 1.85%

INPUT: # input molecule: "CC(C)n1c(=O)c2sccc2n(CC(=O)Nc2ccccc2)c1=O" ; wanted: its cytotoxicity at 10 µM
OUTPUT: 8.02%

INPUT: # input molecule: O=C1NCCC12CN(CC1CC1)CC21CCNCC1 (centres undefined) ; wanted: its cytotoxicity at 10 µM
OUTPUT: -5.31%

INPUT: # input molecule: Cn1cc(N2CCCC(NCc3cccc4c3OCCCO4)C2)cn1 (centres undefined) ; wanted: its cytotoxicity at 10 µM
OUTPUT: -8.58%

Value source: ChEMBL document CHEMBL4513216
